# System: Proteus vulgaris
# Test: Antibacterial activity against Proteus vulgaris 56
# Type: functional
Measurement Kind: MIC (µg/mL)
Answer format: numeric, µg/mL implied, no suffix.

| Molecule | MIC [µg/mL] |
| --- | --- |
| CO/N=C1\CCN(c2c(F)cc3c(=O)c(C(=O)O)cn(C4CC4)c3c2OC)CC1CN (racemic) | 8 |
| CCn1cc(C(=O)O)c(=O)c2cc(F)c(N3CC/C(=N\OC)C(CN)C3)c(F)c21 (racemic) | 8 |

Let's switch to this molecule now.
Entry CO/N=C1\CCN(c2c(F)cc3c(=O)c(C(=O)O)cn(C4CC4)c3c2OC(F)F)CC1CN (racemic) needs its MIC filled in; supply it.
4

----------
Items are presented alongside their recorded MIC.
# Tested on: Enterococcus faecalis
# Test: Antibacterial activity against vancomycin-resistant Enterococcus faecalis EFL1004
# Format: functional
All answers are understood in µg/mL, so give the number only.

| Compound | Target Under Test | Reported Value |
| --- | --- | --- |
| CCO/N=C1\CCN(c2nc3c(cc2F)c(=O)c(C(=O)O)cn3-c2ccc(F)cc2F)CC1CN (racemic) | Enterococcus faecalis | 4 |
| CCO/N=C1\CCN(c2c(F)cc3c(=O)c(C(=O)O)cn(C4CC4)c3c2OC(F)F)CC1CN (racemic) | Enterococcus faecalis | 4 |
| CO/N=C1\CCN(c2c(F)cc3c(=O)c(C(=O)O)cn(C4CC4)c3c2F)CC1CN (racemic) | Enterococcus faecalis | 4 |
| CO/N=C1\CCN(c2nc3c(cc2F)c(=O)c(C(=O)O)cn3-c2ccc(F)cc2F)CC1CN (racemic) | Enterococcus faecalis | 4 |
| CO/N=C1\CCN(c2c(F)cc3c(=O)c(C(=O)O)cn(C4CC4)c3c2OC(F)F)CC1CN (racemic) | Enterococcus faecalis | 4 |

Report MIC, nothing else, for this compound: O=C(O)c1cn(C2CC2)c2cc(N3CCNCC3)c(F)cc2c1=O
1

Give MIC for C[C@H]1COc2c(N3CCN(C)CC3)c(F)cc3c(=O)c(C(=O)O)cn1c23.C[C@H]1COc2c(N3CCN(C)CC3)c(F)cc3c(=O)c(C(=O)O)cn1c23.O
2

Kindly indicate its recorded MIC. Item: CO/N=C1\CCN(c2c(F)cc3c(=O)c(C(=O)O)cn(C4CC4)c3c2OC)CC1CN (racemic)
8

Provide measured MIC value, entry: CCO/N=C1\CCN(c2c(F)cc3c(=O)c(C(=O)O)cn(C4CC4)c3c2OC)CC1CN (racemic)
8

Please report MIC for the following compound: CO/N=C1\CN(c2nc3c(cc2F)c(=O)c(C(=O)O)cn3C2CC2)CC1CN (stereo unspecified)
0.5

Specify measured MIC for CCO/N=C1\CCN(c2c(F)cc3c(=O)c(C(=O)O)cn(CC)c3c2F)CC1CN (racemic) .
32

----------
# System: Proteus vulgaris
# Test: Antibacterial activity against Proteus vulgaris 56
# Format: functional
Measurement Kind: MIC (µg/mL)
Respond numerically; units are µg/mL and should not be typed.

| Compound | Result Unit | MIC |
| --- | --- | --- |
| CCO/N=C1\CCN(c2c(F)cc3c(=O)c(C(=O)O)cn(C4CC4)c3c2F)CC1CN (racemic) | µg/mL | 4 |
| CO/N=C1\CCN(c2c(F)cc3c(=O)c(C(=O)O)cn(C4CC4)c3c2F)CC1CN (racemic) | µg/mL | 4 |

Query compound follows.
Write down MIC measured for item CCO/N=C1\CCN(c2c(F)cc3c(=O)c(C(=O)O)cn(C4CC4)c3c2OC(F)F)CC1CN (racemic)
8
